# test: NCI Yeast Anticancer Drug Screen. Data for the mec2-1 strain (AID 157)
# condition-details: S. cerevisiae mec2-1 strain, at 50.0 µM, stronger effect = higher value
The panel holds about 79,000 compounds, 15% with a hit somewhere; the sample as a whole holds those more often.
growth inhibition values by entry
Give just the numeric value; % need not be written.

// below: answered compounds
[
  {
    "line-notation": "COc1ccc(C2CC(=O)N(CC(=O)O)C(=O)C2)cc1",
    "reading-unit": "%",
    "growth inhibition": 14.8
  },
  {
    "line-notation": "CC(=O)Nc1cc2cc(NS(=O)(=O)c3ccc(Cl)c(Cl)c3)ccc2oc1=O",
    "reading-unit": "%",
    "growth inhibition": -1.55
  }
]

QUERY: Which measured growth inhibition value corresponds to `O=C1/C=C2/C=CC=CN2C(=O)/C=C2/C=CC=CN12` ?
RESULT: -15.3
